# Tested On: COVID-19 WT Mpro (Severe acute respiratory syndrome coronavirus 2)
# Construct: The C-His6-tagged COVID-19 WT Mpro (NC_045512); His6 (C)
# Assay Comment: biochemical
# Condition Notes: WT Mpro 25 nM, substrate 25 μM, 30 min pre-incubation; several values in a cell = repeat determinations
Catalogue of IC50 values
Recorded Endpoint: IC50 (µM)

INSERT INTO results (compound, units_label, limit_operator, measured) VALUES
  ('CC(C)(C)[C@H](NC(=O)[C@H]1C[C@H]2CCCC[C@H]2N1)C(=O)N1C[C@H]2[C@@H]([C@H]1C(=O)N[C@H](C#N)C[C@@H]1CCNC1=O)C2(C)C [Compound 46]', 'µM', '=', 7.5),
  ('CC(C)(C)[C@H](NC(=O)C(F)(F)F)C(=O)N1C[C@H]2[C@@H]([C@H]1C(=O)N[C@H](C#N)Cc1cncnc1)C2(C)C [Compound 15]', 'µM', '>', 30),
  ('CC(C)(C)[C@H](NC(=O)c1c(F)c(F)c(F)c(F)c1F)C(=O)N1C[C@H]2[C@@H]([C@H]1C(=O)N[C@H](C#N)C[C@@H]1CCNC1=O)C2(C)C [Compound 30]', 'µM', '=', 0.714);

====

Catalogue of pEC50 values
# System: SARS-CoV-2 replicon
# Assay Comment: microbe, parasite or virus in culture
# Type: cell-based
# Condition Notes: read-out: Replicon EC50
pEC50: −log10 of the molar value.
Recorded Endpoint: pEC50

INSERT INTO assay_data (mol, measured) VALUES
  ('CC(C)(C)[C@H](NC(=O)C(F)(F)OCC(F)(F)F)C(=O)N1C[C@H]2[C@@H]([C@H]1C(=O)N[C@H](C#N)C[C@@H]1CCNC1=O)C2(C)C', 6.74),
  ('COc1ccc(S(=O)(=O)N[C@H](C(=O)N2C[C@H]3[C@@H]([C@H]2C(=O)N[C@H](C#N)C[C@@H]2CCNC2=O)C3(C)C)C(C)(C)C)cc1', 7.39),
  ('CC(C)(C)[C@H](NC(=O)C(F)(F)C(F)(F)Cl)C(=O)N1C[C@H]2[C@@H]([C@H]1C(=O)N[C@H](C#N)C[C@@H]1CCNC1=O)C2(C)C', 7.89),
  ('Cc1csc(S(=O)(=O)N[C@H](C(=O)N2C[C@H]3[C@@H]([C@H]2C(=O)N[C@H](C#N)C[C@@H]2CCNC2=O)C3(C)C)C(C)(C)C)c1', 7.07),
  ('CCOc1ccccc1S(=O)(=O)N[C@H](C(=O)N1C[C@H]2[C@@H]([C@H]1C(=O)N[C@H](C#N)C[C@@H]1CCNC1=O)C2(C)C)C(C)(C)C', 6.89);

====

# Tested On: COVID-19 WT Mpro (Severe acute respiratory syndrome coronavirus 2, UniProt P0DTD1)
# Construct: The C-His6-tagged COVID-19 WT Mpro (NC_045512); His6 (C)
# Assay Comment: biochemical
# Condition Notes: WT Mpro 25 nM, substrate 25 μM, 30 min pre-incubation; several values in a cell = repeat determinations
pIC50: −log10 of the molar value.
Recorded Endpoint: pIC50

INSERT INTO assay_data (compound, recorded_endpoint, measured) VALUES
  ('CN(C)C(=O)N[C@H](C(=O)N1C[C@H]2[C@@H]([C@H]1C(=O)N[C@H](C#N)C[C@@H]1CCNC1=O)C2(C)C)C(C)(C)C', 'pIC50', 6.38),
  ('CC(C)(C)[C@H](NC(=O)C1CC2CCC(C1)O2)C(=O)N1C[C@H]2[C@@H]([C@H]1C(=O)N[C@H](C#N)C[C@@H]1CCNC1=O)C2(C)C (stereo partly drawn)', 'pIC50', 5.43),
  ('CC(C)(C)[C@H](NC(=O)C1COC1)C(=O)N1C[C@H]2[C@@H]([C@H]1C(=O)N[C@H](C#N)C[C@@H]1CCNC1=O)C2(C)C', 'pIC50', 6.79);
